system: Human colon carcinoma HCT116 cells; assay: Anti-proliferative effect, Alamar Blue assay, HCT116; assay type: cell-based; conditions: 4-day incubation
In this section we review reported HCT116 antiproliferative activity pIC50 values for a set of compounds.
Reply: number alone, nothing else.

Reference set, count: 5
{"compound": "CCN1Cc2ccc(C(C)(C#N)Cc3cc(OC)cc(OC)c3)cc2NC1=O (stereo not drawn)", "system": "Human colon carcinoma HCT116 cells", "HCT116 antiproliferative activity pIC50": 6.4}
{"compound": "CCN1Cc2ccc(C(C)(C#N)Cc3cccc(C#N)n3)cc2NC1=O (stereo not drawn)", "system": "Human colon carcinoma HCT116 cells", "HCT116 antiproliferative activity pIC50": 6.3}
{"compound": "CCN1Cc2ccc(C(C)(C#N)Cc3cccc(F)c3)cc2NC1=O (stereo not drawn)", "system": "Human colon carcinoma HCT116 cells", "HCT116 antiproliferative activity pIC50": 6.8}
{"compound": "CCN1Cc2cc(F)c(C(C)(C#N)Cc3cccc(C#N)c3)cc2NC1=O (stereo not drawn)", "system": "Human colon carcinoma HCT116 cells", "HCT116 antiproliferative activity pIC50": 6.6}
{"compound": "CCN1Cc2cc(F)c(C(C)(C#N)Cc3nc(OC)cc(OC)n3)cc2NC1=O (stereo not drawn)", "system": "Human colon carcinoma HCT116 cells", "HCT116 antiproliferative activity pIC50": 6.3}

[ask] Tell me measured HCT116 antiproliferative activity pIC50 for CCN1Cc2ccc(C(C)(C#N)Cc3nc4ccccc4s3)cc2NC1=O (stereo not drawn) please.
[reply] 6.4

====

tested on: α-β-Tubulin; experiment: α-β-Tubulin polymerization assay; type: biochemical; parameters: key: a compound showing 0 to 50% inhibition at 20 μM is reported as score 1; Score 2 compounds are defined as compound showing more than 50% inhibition at 20 μM and less than 50% inhibition at 5 μM; a compound showing more than 50% inhibition at 5 μM is reported as score 3; details: inhibition of polymerization at 20 μM and 5 μM, reported as score
observation type: tubulin polymerization score

[ask] Tell me measured tubulin polymerization score for CCN1Cc2ccc(C(C)(C#N)Cc3cccc(C#N)n3)cc2NC1=O (centres unmarked) [Compound 21] please.
[reply] 2

====

test system: Human colon carcinoma HCT116 cells; experiment: Anti-proliferative effect, Alamar Blue assay, HCT116; assay type: cell-based; conditions: 4-day incubation
observation type: HCT116 antiproliferative activity pIC50
Reply: number alone, nothing else.

Reference set, count: 2
{"molecule": "CCN1Cc2ccc(C(C)(C#N)Cc3ccccc3)cc2NC1=O (stereo not drawn)", "system": "Human colon carcinoma HCT116 cells", "HCT116 antiproliferative activity pIC50": 6.2}
{"molecule": "CCN1Cc2ccc(C(C#N)(CC)Cc3nc(OC)cc(OC)n3)cc2NC1=O (stereo not drawn)", "system": "Human colon carcinoma HCT116 cells", "HCT116 antiproliferative activity pIC50": 6.4}

[ask] Tell me measured HCT116 antiproliferative activity pIC50 for CCN1Cc2ccc(C(C)(C#N)Cc3nc(OC)cc(OC)n3)cc2NC1=O (stereo not drawn) please.
[reply] 6.6

[ask] Tell me measured HCT116 antiproliferative activity pIC50 for CCN1Cc2ccc(C(C)(C#N)Cc3cccc(C)c3)cc2NC1=O (stereo not drawn) please.
[reply] 6.7

[ask] Tell me measured HCT116 antiproliferative activity pIC50 for CCN1Cc2ccc(C(C)(C#N)Cc3cccc(C#CCOC)c3)cc2NC1=O (stereo not drawn) please.
[reply] 6.7

[ask] Tell me measured HCT116 antiproliferative activity pIC50 for `CN1Cc2ccc([C@@](C)(C#N)Cc3cccc(C#N)c3)cc2NC1=O` please.
[reply] 7.1

[ask] Tell me measured HCT116 antiproliferative activity pIC50 for CCN1Cc2ccc(C(C)(C#N)Cc3cccc(C#N)c3)cc2NC1=O (stereo not drawn) please.
[reply] 6.8

[ask] Tell me measured HCT116 antiproliferative activity pIC50 for CN1Cc2ccc(C(C)(C#N)Cc3cccc(C#N)c3)cc2NC1=O (stereo not drawn) please.
[reply] 6.8

[ask] Tell me measured HCT116 antiproliferative activity pIC50 for CCN1Cc2ccc(C(C)(C#N)Cc3cc(Cl)cc(Cl)c3)cc2NC1=O (stereo not drawn) please.
[reply] 6.4

Source listed as patent US8168644B2.
